molecular target: SUMO activating enzyme (SAE, SUMO E1) (Homo sapiens, UniProt Q9UBT2)
Sequence (Q9UBT2 whole entry): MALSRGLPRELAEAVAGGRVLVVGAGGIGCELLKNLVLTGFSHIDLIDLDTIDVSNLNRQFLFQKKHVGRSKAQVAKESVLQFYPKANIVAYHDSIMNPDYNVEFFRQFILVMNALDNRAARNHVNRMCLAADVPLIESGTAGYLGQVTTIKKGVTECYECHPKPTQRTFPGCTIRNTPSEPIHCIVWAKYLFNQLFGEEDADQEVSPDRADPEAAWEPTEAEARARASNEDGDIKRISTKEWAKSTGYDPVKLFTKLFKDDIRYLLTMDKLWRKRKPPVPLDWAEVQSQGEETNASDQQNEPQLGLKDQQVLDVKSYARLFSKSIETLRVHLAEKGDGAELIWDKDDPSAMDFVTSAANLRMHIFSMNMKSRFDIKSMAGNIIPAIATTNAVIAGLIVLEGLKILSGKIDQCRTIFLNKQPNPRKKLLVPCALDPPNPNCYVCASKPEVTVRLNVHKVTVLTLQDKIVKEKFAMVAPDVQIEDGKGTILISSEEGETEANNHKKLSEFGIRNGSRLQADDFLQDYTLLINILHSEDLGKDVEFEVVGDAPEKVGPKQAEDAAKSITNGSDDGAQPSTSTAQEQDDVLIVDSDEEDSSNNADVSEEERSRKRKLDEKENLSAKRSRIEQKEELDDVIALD
Sequence (Q9UBE0 whole entry partner): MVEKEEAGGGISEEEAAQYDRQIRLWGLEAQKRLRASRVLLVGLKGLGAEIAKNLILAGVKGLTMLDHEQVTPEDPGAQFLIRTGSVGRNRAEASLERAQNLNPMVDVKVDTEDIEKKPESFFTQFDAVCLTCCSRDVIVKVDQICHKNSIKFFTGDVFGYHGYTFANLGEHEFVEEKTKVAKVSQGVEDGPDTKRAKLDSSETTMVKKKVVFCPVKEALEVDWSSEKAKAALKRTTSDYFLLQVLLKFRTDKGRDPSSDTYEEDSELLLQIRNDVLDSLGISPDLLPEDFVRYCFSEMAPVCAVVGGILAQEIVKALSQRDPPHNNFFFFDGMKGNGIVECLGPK
readoutKind: IC50

Lab note: need IC50 for COC(=O)C1=C(C(=O)OC)C2([C@@H](Cc3ccc(C)cc3)Nc3ccccc3)C=CC1O2 (stereo partly shown) on SUMO activating enzyme (SAE, SUMO E1) (Homo sapiens, UniProt Q9UBT2), anyone have it?
~200 nM
